# System: HeLa Kyoto
# experimentalDetails: solubility in G1/S (NP-40 vs SDS abundance) (log2 ratio); higher = more soluble
# conditionSummary: cell cycle stage: G1/S
measureName: solubility in G1/S (log2)
The response must contain the number and no unit.

Guide cases for solubility in G1/S (log2), answers given:
biosequence="MAHVGSRKRSRSRSRSRGRGSEKRKKKSRKDTSRNCSASTSQGRKASTAPGAEASPSPCITERSKQKARRRTRSSSSSSSSSSSSSSSSSSSSSSSSSDGRKKRGKYKDKRRKKKKKRKKLKKKGKEKAEAQQVEALPGPSLDQWHRSAGEEEDGPVLTDEQKSRIQAMKPMTKEEWDARQSIIRKVVDPETGRTRLIKGDGEVLEEIVTKERHREINKQATRGDCLAFQMRAGLLP [ARL6IP4]" resultnumber=-0.997
biosequence="MNQEKLAKLQAQVRIGGKGTARRKKKVVHRTATADDKKLQSSLKKLAVNNIAGIEEVNMIKDDGTVIHFNNPKVQASLSANTFAITGHAEAKPITEMLPGILSQLGADSLTSLRKLAEQFPRQVLDSKAPKPEDIDEEDDDVPDLVENFDEASKNEAN [BTF3L4]" resultnumber=0.114

Pending sequence:
What does the record list as solubility in G1/S (log2) for MVEDELALFDKSINEFWNKFKSTDTSCQMAGLRDTYKDSIKAFAEKLSVKLKEEERMVEMFLEYQNQISRQNKLIQEKKDNLLKLIAEVKGKKQELEVLTANIQDLKEEYSRKKETISTANKANAERLKRLQKSADLYKDRLGLEIRKIYGEKLQFIFTNIDPKNPESPFMFSLHLNEARDYEVSDSAPHLEGLAEFQENVRKTNNFSAFLANVRKAFTATVYN [SPC25] ?
0.585

====

# Tested on: HeLa Kyoto
# experimentalDetails: thermal stability score vs G1/S (z-score of summed log2 fold changes over temperatures); higher = more thermally stable than in G1/S
# conditionSummary: cell cycle stage: mitosis
Entries annotated with measured thermal stability score
The response must contain the number and no unit.

Guide cases for thermal stability score, answers given:
biosequence="MSSSPVKRQRMESALDQLKQFTTVVADTGDFHAIDEYKPQDATTNPSLILAAAQMPAYQELVEEAIAYGRKLGGSQEDQIKNAIDKLFVLFGAEILKKIPGRVSTEVDARLSFDKDAMVARARRLIELYKEAGISKDRILIKLSSTWEGIQAGKELEEQHGIHCNMTLLFSFAQAVACAEAGVTLISPFVGRILDWHVANTDKKSYEPLEDPGVKSVTKIYNYYKKFSYKTIVMGASFRNTGEIKALAGCDFLTISPKLLGELLQDNAKLVPVLSAKAAQASDLEKIHLDEKSFRWLHNEDQMAVEKLSDGIRKFAADAVKLERMLTERMFNAENGK [TALDO1]" resultnumber=-3.31
biosequence="MICTFLRAVQYTEKLHRSSAKRLLLPYIVLNKACLKTEPSLRCGLQYQKKTLRPRCILGVTQKTIWTQGPSPRKAKEDGSKQVSVHRSQRGGTAVPTSQKVKEAGRDFTYLIVVLFGISITGGLFYTIFKELFSSSSPSKIYGRALEKCRSHPEVIGVFGESVKGYGEVTRRGRRQHVRFTEYVKDGLKHTCVKFYIEGSEPGKQGTVYAQVKENPGSGEYDFRYIFVEIESYPRRTIIIEDNRSQDD [TIMM21]" resultnumber=-0.0739
biosequence="MESQKEARTLQEPVARPSGASSSQTPNDKERREGGAVPAAAALGAEADDDSADGLWELPVEPAERRPECTRCSRPQKVCLCPFLPAHPLHISTHLYIIQHPAEENKVLRTVPLLAACLPQDKCKVKIGRRFSEERDPELSTVCRKSGTLILYPGAEAANLEEFILDSPVYPSTIIIIDGTWSQAKDIFYKNSLFRHPKQVQLKTSISSQYVIRMQPTNRCLSTLECAAVALSILEKNNYIQETLLRPLQALCSFQLQHGAQIRLSKEHLLKNGLYPKPMPKNKRKLRKMELLMNSVKI [DTWD2]" resultnumber=0.624
biosequence="MDEDGLPLMGSGIDLTKVPAIQQKRTVAFLNQFVVHTVQFLNRFSTVCEEKLADLSLRIQQIETTLNILDAKLSSIPGLDDVTVEVSPLNVTSVTNGAHPEATSEQPQQNSTQDSGLQESEVSAENILTVAKDPRYARYLKMVQVGVPVMAIRNKMISEGLDPDLLERPDAPVPDGESEKTVEESSDSESSFSD [CCDC53]" resultnumber=-0.73
biosequence="MNSSTSTMSEEPDALSVVNQLRDLAADPLNRRAIVQDQGCLPGLILFMDHPNPPVVHSALLALRYLAECRANREKMKGELGMMLSLQNVIQKTTTPGETKLLASEIYDILQSSNMADGDSFNEMNSRRRKAQFFLGTTNKRAKTVVLHIDGLDDTSRRNLCEEALLKIKGVISFTFQMAVQRCVVRIRSDLKAEALASAIASTKVMKAQQVVKSESGEEMLVPFQDTPVEVEQNTELPDYLPEDESPTKEQDKAVSRVGSHPEGGASWLSTAANFLSRSFYW [ARMC1]" resultnumber=0.316
biosequence="MGAQLSTLGHMVLFPVWFLYSLLMKLFQRSTPAITLESPDIKYPLRLIDREIISHDTRRFRFALPSPQHILGLPVGQHIYLSARIDGNLVVRPYTPISSDDDKGFVDLVIKVYFKDTHPKFPAGGKMSQYLESMQIGDTIEFRGPSGLLVYQGKGKFAIRPDKKSNPIIRTVKSVGMIAGGTGITPMLQVIRAIMKDPDDHTVCHLLFANQTEKDILLRPELEELRNKHSARFKLWYTLDRAPEAWDYGQGFVNEEMIRDHLPPPEEEPLVLMCGPPPMIQYACLPNLDHVGHPTERCFVF [CYB5R3]" resultnumber=-2.76
biosequence="MAPHDPGSLTTLVPWAAALLLALGVERALALPEICTQCPGSVQNLSKVAFYCKTTRELMLHARCCLNQKGTILGLDLQNCSLEDPGPNFHQAHTTVIIDLQANPLKGDLANTFRGFTQLQTLILPQHVNCPGGINAWNTITSYIDNQICQGQKNLCNNTGDPEMCPENGSCVPDGPGLLQCVCADGFHGYKCMRQGSFSLLMFFGILGATTLSVSILLWATQRRKAKTS [ATRAID]" resultnumber=0.854
biosequence="MSGFSTEERAAPFSLEYRVFLKNEKGQYISPFHDIPIYADKDVFHMVVEVPRWSNAKMEIATKDPLNPIKQDVKKGKLRYVANLFPYKGYIWNYGAIPQTWEDPGHNDKHTGCCGDNDPIDVCEIGSKVCARGEIIGVKVLGILAMIDEGETDWKVIAINVDDPDAANYNDINDVKRLKPGYLEATVDWFRRYKVPDGKPENEFAFNAEFKDKDFAIDIIKSTHDHWKALVTKKTNGKGISCMNTTLSESPFKCDPDAARAIVDALPPPCESACTVPTDVDKWFHHQKN [PPA1]" resultnumber=-1.97
biosequence="MTDAAVSFAKDFLAGGVAAAISKTAVAPIERVKLLLQVQHASKQITADKQYKGIIDCVVRIPKEQGVLSFWRGNLANVIRYFPTQALNFAFKDKYKQIFLGGVDKRTQFWLYFAGNLASGGAAGATSLCFVYPLDFARTRLAADVGKAGAEREFRGLGDCLVKIYKSDGIKGLYQGFNVSVQGIIIYRAAYFGIYDTAKGMLPDPKNTHIVISWMIAQTVTAVAGLTSYPFDTVRRRMMMQSGRKGTDIMYTGTLDCWRKIARDEGGKAFFKGAWSNVLRGMGGAFVLVLYDEIKKYT [SLC25A5]" resultnumber=-3.52

Pending sequence:
What does the record list as thermal stability score for MAAAEPSPRRVGFVGAGRMAGAIAQGLIRAGKVEAQHILASAPTDRNLCHFQALGCRTTHSNQEVLQSCLLVIFATKPHVLPAVLAEVAPVVTTEHILVSVAAGVSLSTLEELLPPNTRVLRVLPNLPCVVQEGAIVMARGRHVGSSETKLLQHLLEACGRCEEVPEAYVDIHTGLSGSGVAFVCAFSEALAEGAVKMGMPSSLAHRIAAQTLLGTAKMLLHEGQHPAQLRSDVCTPGGTTIYGLHALEQGGLRAATMSAVEAATCRAKELSRK [PYCRL] ?
-1.85

The measurements presented in this section are drawn from the supplement of paper PMC5998384.
